Experiment Description: soluble on expression in E. coli; label from the status in PepcDB or PDB records
Test Readout: soluble on expression in E. coli

* MIAQQFNRARHILRHNLVRPFYQPKFYLESGKLAGFEALLRWYDEDNQIQLPKLIINAFEDYSLASRLSEKMQLNIFKDMASWINQGLQLVPVSINAAPVEFLKDNYAELLLERLNQFEIPYHLIEIEITEHLLDDQGKNFISRALAKLKQNGIRIALDDFGTGHSSLTRLANLPVDCLKIDCDFVQRMEQEKFISALVQSVILMSNNLGIDVVAEGIESQEQLELLKQQGCEVGQGFLFSQA | not soluble
* MLKLYVLVYKGEPLDYHEYRHTALYLKLPDNQSFIMHILGTQGMFEYAQIKNKDPSVVGSLAKVVPVADISEVIGSGPIQSTVAKTLVQNGPLDLDWNCQHWVGDALSKLAERKYITVAERAEAIDRMMDACLEAMDD | not soluble

---

Experiment Description: soluble on expression in E. coli; label from the status in PepcDB or PDB records
Test Readout: soluble on expression in E. coli

- EELEYKGMNTLQISNVDDLISFYQYADDRIPLISGHRGGRGKGYPENSMETFENTLSYTPATFEIDPRLTKDSVIVLFHDDTLERTSNGTGKVSDYTWEELQNFRLKDPEGNITNYRIPTLEEAIRWARGKTILILDKKDVPMERTAQLITDMQAEPYVMITVHDGASARFFYEKNPNFMFEAFVKTKEAVQDYEDNGIPWSHIMAYVGPKITPEVREVIDMLHERGVMCMISTAPSDDKLSTPESRAEAYRMIIRQGVDIIESDRPIEVAEAISSLIPVSSSKGKFFSTL: soluble
- SAQDLRMSYCYAKFEGGKCSSPKSRNHSKQECCCALKGEGWGDPCELCPTEPDEAFRQICPYGSGIIVGPDDSA: soluble
- SKLVWSPETASKAYIDTVKSCENLETPDAAELIAAMAAGWNVKLIVETWSEGDAIASSIGLNVASKHANAKHICIVQNSRSESAYLQAIQESSSPLNFPETIVAEEPGKAMKKLQGVDFLVVDWRNKEFAAAALKNAAFGNRGAVVVCRNGYSSLRRVLRDRKVVRTVTLPVTGGIEIAHVAARNSGKSGNNKRRWITHVDQRSGEEHVFSI: soluble
- MRIEQELKLGFKDVLFRPKRSTLKSRSQVNLTREFTFKHSGRQWSGVPVIAANMDSVGSFAMAKALAEHGVMTAVHKHYTVADWAEFVKSADKATLNNVMVSTGTSEADFQKTKDVMALSDELIFICIDIANGYSEHLVEYVQRVRAAFPDKVISAGNVVTGDMVEELILAGADIVKVGIGPGSVCTTRVKTGVGYPQLSAIIECADAAHGLGGRIIGDGGCTCPGDVAKAFGGGADFVMLGGMLAGHEEAGGELIVKDGETFMKFYGMSSKSAMDKHSGGVAGYRAAEGKTVLLPYRGSVHGTIQDILGGVRSTCTYVGAAELRELTKRTTFIRVQEQENNVYGRE: soluble
- GPGSMSYSGRKLKYFVEDSDGWLRRNQQVAEQFVMAEDDRETKEMLSLLAPRAHFASFWGVVRGLPAAVALQAQEREHLRITWTSGLQPLTSRTFARNGYVHVLDRERMSFIPVLGPWLSSFFQRPVQELLVVREGRVVFRGMGYVWDIGKH: not soluble
- FLKGGFDPKMNSKEALQILNLTENTLTKKKLKEVHRKIMLANHPDKGGSPFLATKINEAKDFLEKRGISK: not soluble
- MSLRALFDALTPKQARIAAILKREGGLQLTITCREYYHLRDMLEQYKVDYICIGRYGETTEEKLVEGLKRQLQMVEIMRGLDGVVSFPSPDAVRTAFGLGKKSVVLNDTPHAYHANSLTIPLSDALIAPSAIPQDAWRRYCPKKVMTFDGVFEYMWTSRHTPNLESVRKLGLEPGSYVVFRPEEAKAAYYQWNNVQLRAKLVELVKEMGYVVVNIPRYPDQVIEGAINLIKAVDHLDLAYYAAAVITGGLTMSTEAALLGTPAVSYFPGDVYIDRYLERAGAPLLRCSSMDECIHVVKKALSMGRAPPPKMEDPLKAIVAAVQEIFGGEGHHHHHH: soluble

---

Experiment Description: soluble on expression in E. coli; label from the status in PepcDB or PDB records
Test Readout: soluble on expression in E. coli

* MAHHHHHHMRRSLVFPPCHLQEARLLQSQQLFGWYHQTRHFTSLVDRLSTGVARKLSSLTETHMMPLSEKHITEPRRPYPKRPSMQENLAERLAEQRRWRSRVVPQQIILSKDKLYIEFVWSAATLSAAAAREMRQQQNNEEENGDGCTQKRKGISCGSFANDGIIKSEKLMSHRTRFLAEFLRAYSPSTDVIGADALIYGRRGITITDVIPVGNYALRIVFSDGHSGGIYPYEYLFHLGQCKYTKMREYIRRLREKRKSRDPPKRVPSKYVPRGRNAAEGTPKRDKTDDCGHRVAAK | not soluble
* MSLIQDNEISSSTKTRIKALKFFSRKMLSELNFGGYRSIFKGLGLEFHEFRPYEDSDDARFIDWNVSSKADSIFSKVFKEDRGMNLHLLVDNSLSMSLGDKVNKKDVQDLLVSIFAHMAFFNNDKIGVTFFSSGTDKFIPSSKGHSHLGLILSETINRNLKPGSSLAYIFKNTAEYYKKRSLVIIISDFKANAYFKSLNVLSKRHNVIAIRISDFFDENFPKIGTLICEDIETGENFLVSGFSKSTLSGYKNYWTLDKIKWKKECIKKNISFIEIDTKEDVFKKLKILLKKGQEGHHHHHH | not soluble
* GSGVDFYDVAFKVMLVGDSGVGKTCLLVRFKDGAFLAGTFISTVGIDFRNKVLDVDGVKVKLQMWDTAGQERFRSVTHAYYRDAHALLLLYDVTNKASFDNIQAWLTEIHEYAQHDVALMLLGNKVDSAHERVVKREDGEKLAKEYGLPFMETSAKTGLNVDLAFTAIAKELKRRSMKAP | soluble
* MSLKLILNTQINTKLREIDISNETELIMSNDFPVNKIAMTGKVGYADMQGQRGTMEDALIVDSNIGIYAIFDGHGGHIVSSLSAQRIHERLQSLQNGSEFRELITQAVDSVVGELKEKKVLGGSTMCLVRVGQDKIEVANIGDSRCVAILKDGTQRQLSNDHKPTYRPEVERIREKGSFVSKGRVQGRLAVARAIGDFAVLGIESVIEFTEIDKDIVSRIVIGCDGLYDVVSNEDCLKICNENQSAVTTAYKLRDRAFQRGSTDNISVIVVDCLEGHHHHHH | soluble
* MGKLKWFSGGKERSNQAENIITDLLDDLKTDLDNESLKKVLENYLEELKQKSASVPLILSRMNLDISKAIRNDGVTLSDYQSKKLKELTSISNIRYGY | soluble
* MGSDKIHHHHHHMHFYRSLGPIRAITFDLDDTLYDNADVIRRTGQESIRFLQEYHPALRDFQADDFQNLRQTLLEREPDIYHDVTEWRRRAVELAMLDRGLSAAESKDGAKAAMENFAHWRSQIAITEETHQTLAALAEKVPLAAITNGNAEPHRFGLERYFSFILRAGPHGRAKPFDDMYHLAAEKLNLPLHEILHVGDDLTTDVAGSIRCGMQACWINLREGSLTQIGDARLLPHIEISRLASLSALL | not soluble

---

Experiment Description: soluble on expression in E. coli; label from the status in PepcDB or PDB records
Test Readout: soluble on expression in E. coli

• MGSDKIHHHHHHMLSRIAESLFWIGRYVERADGTARILDVHLERLNHLPTEERDNVARELLAVMGARPESDEFGLEELLHALAYDKQSATSIAGSLGAARENARRARETVSSGLWESLNTTYYGLNQHRKDVVGTYRFCHWVLERTAMVSGLADTTVSHDDSWLFLALGRSLERADMTARMLSTRDVLSAGMSWVNMLRCAGAYESFLRTRRAAFGDQHAAEFLLLDRLFPRSIVYALRDADECLAKLDPSAQRVGFINDARRIVGQARTFLEFHRTDDLMSELPEHMERVQKAVSQASDAISRKYFNQADELAWVGEVS = not soluble
• MSGVYDSQADIYLDARPTYPADWYSKLAALSHRHNLAWDAGTGNGQAAIGIAEHYERVVATDVSETMLNLGKPHPKVTYHHTPSSMTEDEMVDLIGGENSVDLITVATAVHWFDLPRFYAIANRLLRKPGGIIAVWSYNTDMVVNPEFDSVMTRFIAETLPYCKFPESQYFLDGYKTLPFPFESVGLGSEGKPMELEMKKTVSFEGFLRMLRSWSAVGAAKEKGVDLLSDNVVKELETAWGGYELVRTIVYKTFMLAGTVP = soluble
• MVNRCFFFNRRICFMELFLLRHGKPDIRRSMAIRSVDMYSWIGEYDAAGILDSPDASTVAASEGKFIVSSPMPRALESVAALGLEPDIIIDELHEAPLPVFNIPLLKLTPLVWAALFRIFWMAGGSGGVETFSSVKIRAKLVSCELDKMAETHGSVLSVGHGFMNALVARELQKAGWKRQKVGPSGYWSGIKLVRLEHHHHHH = soluble
• MSLDSKIDILIVVNMFLTGFDSKVLNTLYVDKNLMYHDLIQAYSRTNRVEKESKPFGKIVNYRDLKKETDDALRVFSQTNDTDTILMRSYEEYKKEFMDAYRELKMIVPTPHMVDDIQDEEELKRFVEAYRLLAKIILRLKAFDEFEFTIDEIGMDEQENEDYKSKYLAVYDQVKRATAEKNKVSILNDIDFEIEMMRNDTINVNYIMNILRQIDLEDKAEQREGHHHHHH = soluble
• GPGSMSYYDKSSSVGYDERDKELNEELEAMLARTPPHIQRHLQQRIHDGILQRMKEETTRKCWEFVKKYEGCVNSVQPYNIRECLPHRDALNDCAHEINCEDNYQKYRLLYLHGELLKLHEHRTGQKMEALKSRVPDSIRTWKSDYAPKYADMMSEVGAKPFTGEGENLDDE = soluble
• MSLEYAKSLFERHLDIASKFRPKNPYLKTAYMNVLLSLTQTICQSPQELSNDDLSDAGAALAYLREAGFELDWLEKKLNEVKEKKKKEEACLAEIQDMDEHVKPLKKKYLDLEAQIDKKKAELLAARAPLSLNDDNVVSMFCDSAETQQWFDKNAPDWGFTEMISLTELHAEEGLLRNGELTVVAKVEVLEVVGKLDVSEESSPVIETIDVNGFQVLPSEGHHHHHH = soluble
• RSGVLITDKPKKKDKKEEPAALQTTVQSMLISRPRELEAEVVRFQNNREKWIAFVGLKDGRPYEIFTGIADDDEGIMVPKSVTHGKIIKNRDENGERHYDFQFCNKKGFKVTIEGLDSKFNPEYWNYAKLISGVLRYGMPIEQVVHLVQGMSLNDESINTWKNGVERALKRYLPNGTTLSGQVCPSCGQETLVYQEGCLLCTSCGASKCG = not soluble
• DKELFFINVYDITASKKAERELIESEEKFKQVVELSVDGIIIGTDSGKIVDCNGAACRIFGYDKEEILKLQVIDLFPGDLNIIAHDITSCNKAAGEKTVERINQKKDGTSFPAEVAARRVKLGN = not soluble
• MAFDAARYVHRYYASLAPAPGNEYPRLRAWEYLWEYVWDPSRSWDDLTAPEQLDTTALHLGFYLANWGMFRGSSGLLQNSNLDLMKALARQLFSGAGPELFELSLVDFAGNGARLAHNRKLLETVLGSMDALSSRVSWTDTLKSKILLGVWGEFPALDRHYVAACRALYPRRGLTSVNGGTLTALHRLIGEERLSFPRLETARKGLLYPTGRLADMAFFQYGLENALEHHHHHH = soluble
• MSKNVGKLVKIWNESEVLVDRKSKFQARCCPLQNQKDIPSILQELTQNNKSVSKASHMHMYAWRTAEVSNNLHLQQEQKKKGNKANKSNNSHVNKSRNITVQPKNIEQGCADCGEAGAGQRLLTLLERANIFNVLVIVTRWYGGTPLGSSRFRHISTCAVETLKKGGFLP = soluble
• GPGSMSTEDASIAYAKKHKIHHLFELMATKVLLNRPENPFAYLRNLLKDVEESEKNRVPYDPTEVHFNNDVGAAAPAAGNSGGSGAAAPAAALTSAKKEKRTVTLATFGLDRAGKTCALSVLESGEADKKYTPTVGFAPIKFPLDDYNLCVFDLGGAANFRGIWVHYYHDCFGIVYVIDSAASDERVAESLKVLHETLQHPYVKGKPLLVLANKKDLPESRGVGVVPQGFLEEAMGEPGAPHRVLATCAIEDDPVLVEGIEWLLEAVSKEYDTLAKRVAKDSNEVKSEKARQRAARLAAIRGEDR = soluble
• NEKFRPEMLQGKKVIVTGASKGIGREIAYHLAKMGAHVVVTARSKEALQKVVARCLELGAASAHYIAGSMEDMTFAEEFVAEAGNLMGGLDMLILNHVLYNRLTFFHGEIDNVRKSMEVNFHSFVVLSVAAMPMLMQSQGSIAVVSSVAGKITYPLIAPYSASKFALDGFFSTLRSEFLVNKVNVSITLCILGLIDTETAIKATSGIYLGPASPKEECALEIIKGTALRQDEMYYVGSRWVPYLLGNPGRKIMEFLSAAEYNWDNVLSNEKLYGRWA = soluble
• MACKRLVPGGEIERTRRVLDLFADSGSRVIRPQQPVDVLGSEGPAKVLGQVQNNVAVQYDHMVRGIGHDTGLESDQVCRLTERGICVRELLTLVFGDKALGAEHGDIRRGHTQDAGVL = not soluble
